All figures here come from ChEMBL document CHEMBL1124114.

- ASSAY TEXT: Dose ratio in the presence / absence of N-methyl-nalorphine (11.5 mg/kg) in acetic acid (AA) writhing
- Assay type: functional
READOUT TYPE: Ratio
// return just the number, without any unit appended

Illustrative cases are given below, each with its answer.
>  <SMILES RECORD>
NC(=O)[C@@H]1CCCN1C(=O)[C@H](Cc1ccc([N+](=O)[O-])cc1)NC(=O)CNC(=O)[C@@H](CSCCS(=O)(=O)[O-])NC(=O)[C@@H](N)Cc1ccc(O)cc1.[Na+]

>  <READOUT TYPE>
Ratio

>  <NUMERIC VALUE>
4

$$$$
>  <SMILES RECORD>
C[S+](C)CC[C@@H](NC(=O)[C@H](Cc1ccc(O)cc1)N=C(N)N)C(=O)NCC(=O)N[C@@H](Cc1ccc([N+](=O)[O-])cc1)C(=O)N1CCC[C@H]1C(N)=O.Cl.Cl

>  <READOUT TYPE>
Ratio

>  <NUMERIC VALUE>
4.2

$$$$
>  <SMILES RECORD>
NC(=O)[C@@H]1CCCN1C(=O)[C@H](Cc1ccc([N+](=O)[O-])cc1)NC(=O)CNC(=O)[C@@H](CCC(=O)O)NC(=O)[C@@H](N)Cc1ccc(O)cc1

>  <READOUT TYPE>
Ratio

>  <NUMERIC VALUE>
5.5

$$$$

Now look at this one.
Any idea what its Ratio is? The compound is N=C(N)N[C@@H](Cc1ccc(O)cc1)C(=O)N[C@H](CCC(=O)O)C(=O)NCC(=O)N[C@@H](Cc1ccc([N+](=O)[O-])cc1)C(=O)N1CCC[C@H]1C(N)=O
1.2

====

- Tested on: Mus musculus
- ASSAY TEXT: In vivo inhibition of phenyl-1,4-benzoquinone(PBQ) -induced writhing in mice (sc)
- Type: functional
Numbered stars: 1 amine (or outer) side, 2 acyl side, 3 side chain; on linkers, the order of the positions; unused ones are H or OH. Square brackets hold non-standard residues; d marks the D form. Peptide text beside a SMILES is read from it. * marks the point of attachment. Phe(4-NO2) = N[C@@H](Cc1ccc([N+](=O)[O-])cc1)C(=O)O; Tyr(Nα-amidino) = N=C(N)N[C@@H](Cc1ccc(O)cc1)C(=O)*; X3 = O=C([C@@H](CCS(=O)(=O)O)N[*:1])[*:2]
READOUT TYPE: ED50 (mg/kg)
Numbers only here, please. The scale is mg/kg.

>  <COMPOUND>
N=C(N)NCCC[C@@H](NC(=O)[C@H](Cc1ccc(O)cc1)NC(=N)N)C(=O)NCC(=O)N[C@@H](Cc1ccc([N+](=O)[O-])cc1)C(=O)N1CCC[C@H]1C(N)=O ({Tyr(Nα-amidino)}-[dR]G[Phe(4-NO2)]P-NH2)

>  <ED50, mg/kg>
1.3

$$$$

Any idea what its ED50 is? The compound is CSCC[C@H](NC(=O)[C@@H](N)Cc1ccc(O)cc1)C(=O)NCC(=O)N[C@@H](Cc1ccc([N+](=O)[O-])cc1)C(=O)N1CCC[C@H]1C(N)=O (H-YMG[Phe(4-NO2)]P-NH2)
0.4

Any idea what its ED50 is? The compound is NC(=O)[C@@H]1CCCN1C(=O)[C@H](Cc1ccc([N+](=O)[O-])cc1)NC(=O)CNC(=O)[C@@H](CCCN=C(N)N)NC(=O)[C@@H](N)Cc1ccc(O)cc1
4.9

Any idea what its ED50 is? The compound is N=C(N)N[C@@H](Cc1ccc(O)cc1)C(=O)N[C@H](CCC(=O)O)C(=O)NCC(=O)N[C@@H](Cc1ccc([N+](=O)[O-])cc1)C(=O)N1CCC[C@H]1C(N)=O
0.3

Any idea what its ED50 is? The compound is Cl.NC(=O)[C@@H]1CCCN1C(=O)[C@H](Cc1ccc([N+](=O)[O-])cc1)NC(=O)CNC(=O)[C@@H](CCS(=O)(=O)O)NC(=O)[C@@H](N)Cc1ccc(O)cc1 (H-Y[X3]G[Phe(4-NO2)]P-NH2)
3.1
